experimental system: 5-HT2A receptor (Rattus norvegicus)
protocol summary: cell-based
conditions used: pEC50 ± SEM, RSK2+/+ MEFs; EGF 100ng/mL 60 min

# smiles representation, EC50 / nM
measured = [
    ("COc1ccc2[nH]cc(CCN(C)C)c2c1", 67.6),
]

---

experimental system: 5-HT2A receptor (Rattus norvegicus, UniProt P14842)
Sequence (P14842 whole entry): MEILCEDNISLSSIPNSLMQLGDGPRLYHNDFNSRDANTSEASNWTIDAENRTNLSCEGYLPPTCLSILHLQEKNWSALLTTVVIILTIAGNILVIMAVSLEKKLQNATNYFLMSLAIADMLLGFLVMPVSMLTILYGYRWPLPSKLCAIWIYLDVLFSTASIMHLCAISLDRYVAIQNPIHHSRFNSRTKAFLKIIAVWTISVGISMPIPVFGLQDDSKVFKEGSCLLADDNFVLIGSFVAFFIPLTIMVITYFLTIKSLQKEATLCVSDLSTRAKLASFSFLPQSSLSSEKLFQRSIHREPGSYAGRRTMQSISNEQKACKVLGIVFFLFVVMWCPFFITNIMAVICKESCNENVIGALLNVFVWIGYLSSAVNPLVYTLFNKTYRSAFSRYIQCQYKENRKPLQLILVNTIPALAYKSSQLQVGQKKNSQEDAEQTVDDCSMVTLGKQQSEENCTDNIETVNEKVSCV
protocol summary: cell-based
conditions used: pEC50 ± SEM, RSK2+/+ MEFs; EGF 100ng/mL 0 min (untreated)
pEC50: −log10 of the molar value.
observation type: pEC50

# molecule, numeric result
measured = [
    ("COc1ccc2[nH]cc(CCN(C)C)c2c1 [5-methoxy DMT, 5-methoxy-N,N-dimethyltryptamine]", 7.59),
]

---

experimental system: 5-HT2A receptor (Rattus norvegicus)
protocol summary: cell-based
conditions used: pEC50 ± SEM, RSK2−/− MEFs; EGF 100ng/mL 0 min (untreated)
pEC50: −log10 of the molar value.

# compound, pEC50
measured = [
    ("COc1ccc2[nH]cc(CCN(C)C)c2c1 [5-methoxy DMT, 5-methoxy-N,N-dimethyltryptamine]", 7.05),
]

---

experimental system: P2Y purinergic receptor
protocol summary: FLIPR Tetra P2Y-mediated Ca^2+ responses in MEFs
Assay type: cell-based, mouse
conditions used: read-out: potency (EC50); RSK2+/+ MEFs; untreated
pEC50: −log10 of the molar value.

# smiles representation, pEC50
rows = [
    ("Nc1ncnc2c1ncn2[C@@H]1O[C@H](COP(=O)(O)OP(=O)(O)OP(=O)(O)O)[C@@H](O)[C@H]1O", 5.15),
]

---

experimental system: 5-HT2A receptor (Rattus norvegicus)
protocol summary: cell-based
conditions used: pEC50 ± SEM, RSK2−/− MEFs; EGF 100ng/mL 60 min
observation type: EC50 (nM)

# compound, observation type, numeric result
rows = [
    ("COc1ccc2[nH]cc(CCN(C)C)c2c1 [5-methoxy DMT, 5-methoxy-N,N-dimethyltryptamine]", "EC50", 89.1),
]
